Reported values of GI50 for individual entries
# Test system: COLO 205 colon
# assayName: NCI tumour cell line growth inhibition, 48 h

Please review the following examples before continuing.
{"columns": ["compound", "GI50"],
 "data": [
  ["ClC/C=C/CSc1ncnc2nc[nH]c12", "> 100000 nM"],
  ["O=C(CC1(O)C(=O)Nc2ccc(Cl)cc21)c1ccc(C(=O)NCC2CCC3(CC2)OOC2(CCCCC2)OO3)cc1 (stereo not given)", "3090 nM"],
  ["CNC(=O)c1sc(-n2cnc3cc(OC)c(OC)cc32)cc1OCc1ccccc1C(F)(F)F", "> 25000 nM"],
  ["CCCCCn1sc(=O)n(Cc2ccc(CNC(=O)C(C)c3ccc(CC(C)C)cc3)cc2)c1=O (stereo not given)", "598 nM"]
]}

// next item, GI50 requested
Asked: Given the entry COC(=O)[C@]12CC[C@@H](C)[C@H](C)[C@@H]1C1=CC[C@@H]3[C@@]4(C)C[C@@H](OC(C)=O)[C@H](OC(C)=O)[C@@](C)(COC(C)=O)[C@@H]4[C@H](O)C[C@@]3(C)[C@]1(C)CC2 , report its measured GI50.
Given back: 513 nM

====

TGI values by entry
# Test system: NCI-H226 lung
# assayName: NCI tumour cell line growth inhibition, 48 h

{"columns": ["compound", "assayValue"],
 "data": [
  ["CCN(CC)C(=O)Cc1[nH][nH]c(=O)c1C(=O)N(CC)CC", "> 100 µM"],
  ["O=C(NOCCO)c1ccc2cncn2c1Nc1ccc(I)cc1F", "> 100 µM"],
  ["CCOC(=O)C1=C(C)N(NC(=O)Nc2ccccc2)C2(N)N(NC(=O)Nc3ccccc3)C(C)=C(C(=O)OCC)C12C#N (stereo unspecified)", "36.1 µM"],
  ["CC1=C(C(=S)Nc2ccc(Cl)c(C(=O)OC(C)C)c2)SCCO1", "44.6 µM"],
  ["CCC(CCCC[C@H]1CC[C@@H]2CC(=O)C[C@H]12)OC (stereo partly specified)", "> 100 µM"]
]}

The record that follows has no TGI shown yet.
Asked: # lookup: TGI of NS(=O)(=O)c1cccc(Nc2cc(-c3ccc(F)cc3)[nH]n2)c1
Given back: > 25 µM

====

# Test system: LXFL 529 NSCLC
# assayName: NCI tumour cell line growth inhibition, 48 h
Quick reference for TGI among some molecules

Example entries begin here.
{"columns": ["molecule", "TGI"],
 "data": [
  ["CCN(CC)C(=O)Cc1[nH][nH]c(=O)c1C(=O)N(CC)CC", "> 100 µM"],
  ["Nc1ncc(CN2CCCC2)c(-c2ccccc2O)n1", "> 750 µM"]
]}

Asked: Give the measured TGI of COc1cc(O)c(C(=O)C2Cc3ccccc32)c(OC)c1 (stereo not drawn) .
Given back: > 100 µM

====

Entries annotated with measured TGI
# Tested on: DLD-1 colon
# assayName: NCI tumour cell line growth inhibition, 48 h

{"columns": ["molecule", "outcomeMeasure", "assayValue"],
 "data": [
  ["CC/C(CC(=O)CCC(=O)Nc1ccc(C)c(C)c1)=N\\NC(=O)c1cc2ccccc2cc1O", "TGI", "> 100 µM"]
]}

Asked: Checklist item: TGI tested on DLD-1 colon, entry CCOC(=O)C(Oc1ccc(OC)c2c1C(=O)CCC2)c1ccccc1 (stereo not drawn) , value?
Given back: > 100 µM

Asked: What value of TGI on DLD-1 colon does CCOC(=O)C(=O)CC(=O)C(Br)C(Br)c1ccc(Cl)cc1 (stereo not drawn) have?
Given back: 43.1 µM

====

# System: HCT-116 colon
# assayName: NCI tumour cell line growth inhibition, 48 h; in the data active = GI50 below about 0.43 µM; inactive = the rest
Thanks in advance; please answer with one of these: active, inactive

Below, 5 compounds whose answers are already recorded.
{"columns": ["compound", "labelValue"],
 "data": [
  ["CNC(=O)c1sc(-n2cnc3cc(OC)c(OC)cc32)cc1OCc1ccccc1C(F)(F)F", "inactive"],
  ["COc1cccc(/C=C\\C(=O)c2ccccc2)c1", "inactive"],
  ["COc1cc(OC)c(/C=C/S(=O)(=O)Cc2ccc(OC)c(N)n2)c(OC)c1", "active"],
  ["C=C(CN1CCN(c2cc(C(F)(F)F)cc(C(F)(F)F)c2)CC1)c1ccc(C(=O)Nc2ccccc2N)cc1", "inactive"],
  ["ClC/C=C/CSc1ncnc2nc[nH]c12", "inactive"]
]}

Asked: Short answer needed: outcome of this test for CCCCCCCCCC(=O)Oc1ccc(/C(=C(/C)c2ccccc2)c2ccc(OCCN3CCCC3)cc2)cc1 ?
Given back: inactive

Asked: For N#Cc1ccc2c(-c3ccnc(NC4CC4)n3)c(-c3ccc(F)cc3)nn2c1 , what call appears in the results of this test?
Given back: inactive

====

# System: SK-MEL-28 melanoma
# assayName: NCI tumour cell line growth inhibition, 48 h
outcomeMeasure: TGI

Consider the reported TGI for these compounds:
{"columns": ["compound", "systemUnderTest", "assayValue"],
 "data": [
  ["CSCSCC(CO)NC(=O)/C=C/c1c(C)[nH]c(=O)[nH]c1=O (stereo not given)", "SK-MEL-28 melanoma", "> 100 µM"],
  ["N/N=C1/C(=O)N(c2ccc(Cl)cc2)C(=O)C(=O)C1c1nc2ccccc2s1 (stereo not given)", "SK-MEL-28 melanoma", "> 100 µM"]
]}

Asked: Given the entry CC(C)=CC(=O)c1[nH]c2ccccc2c1CC(=O)NCCc1cnc[nH]1 , report its measured TGI.
Given back: > 100 µM

Asked: Which TGI is reported for this compound? O=C(OC[C@H]1C[C@H]2C(=O)OCCC[C@H]2O1)c1ccccc1
Given back: > 100 µM

Asked: Requested read-out: TGI. Entry: NS(=O)(=O)c1cccc(Nc2cc(-c3ccc(F)cc3)[nH]n2)c1
Given back: > 25 µM

====

Recorded TGI values for a group of molecules are listed next.
# Test system: HL-60(TB) leukemia
# assayName: NCI tumour cell line growth inhibition, 48 h

Recorded results for 10 molecules are shown here.
{"columns": ["molecule", "TGI"],
 "data": [
  ["O=C(Cn1c(=O)oc2ccccc21)N(c1ccccc1)c1ccccc1", "> 100 µM"],
  ["O=C1N(c2ccc(Cl)cc2)C(=O)C2(SC=NN2Cc2ccccc2)N1c1ccc(Cl)cc1 (configuration not stated)", "> 100 µM"],
  ["COc1ccc(C(CC(=O)c2cccs2)C(=O)c2ccc3c(c2)OCO3)cc1 (configuration not stated)", "> 100 µM"],
  ["Cc1csc(NCc2ccc(Cl)cc2)n1", "> 100 µM"],
  ["O=C1CC2(CCN(Cc3ccccc3)CC2)C(=O)N1N1CCCCC1", "> 100 µM"],
  ["CC/C(CC(=O)CCC(=O)Nc1ccc(C)c(C)c1)=N\\NC(=O)c1cc2ccccc2cc1O", "8.68 µM"],
  ["COc1ccc(/C=C(\\C#N)c2ccccn2)cc1OC", "> 100 µM"],
  ["CCC(CCCC[C@H]1CC[C@@H]2CC(=O)C[C@H]12)OC (some centres not stated)", "> 100 µM"],
  ["CCOC(=O)/C(C(=O)c1ccc[nH]1)=C1/CCCN1C", "> 100 µM"],
  ["COc1ccc([C@@H]2[C@@H](Cl)C(=O)N2c2cc(OC)c(OC)c(OC)c2)cc1C", "0.0767 µM"]
]}

Asked: Can you look up the measured TGI of C=C(CN1CCN(c2cc(C(F)(F)F)cc(C(F)(F)F)c2)CC1)c1ccc(C(=O)Nc2ccccc2N)cc1 for me?
Given back: > 100 µM

Asked: Which TGI is reported for this molecule? Cc1ccc(-c2ccc3c(c2)Sc2ccccc2O3)n1C
Given back: 0.261 µM

====

# Tested on: ACHN renal
# assayName: NCI tumour cell line growth inhibition, 48 h
outcomeMeasure: TGI

Below: 3 molecules and their reported TGI.
{"columns": ["molecule", "assayValue"],
 "data": [
  ["COc1cc(F)c(F)c(Nc2ccc(I)cc2F)c1NS(=O)(=O)C1(CC(O)CO)CC1 (centres undefined)", "> 73.9 µM"],
  ["O=[N+]([O-])C(/C=C(\\Cl)[N+](=O)[O-])=C(N1CCOCC1)N1CCOCC1", "> 100 µM"],
  ["CC(=O)N(C(=O)CC(=O)N1N=C(C)C(N=Nc2cccc([N+](=O)[O-])c2)C1=O)c1ccc(Cl)cc1 (centres undefined)", "> 10 µM"]
]}

Lab note: next molecule to report on.
Asked: State the recorded TGI for this entry: NN=C1/C(=C\c2ccccc2)CCC/C1=C/c1ccccc1
Given back: > 100 µM

====

# System: U251 CNS
# assayName: NCI tumour cell line growth inhibition, 48 h
Each entry gets no if its TGI stays under 10 µM, and yes if its TGI is 10 µM or above.

Asked: Could you tell me if the measured TGI of CN1CCN(Cc2ccc(NC(=O)c3cncc(C#Cc4c(N)ncc5ccccc45)c3)cc2C(F)(F)F)CC1 reaches 10 µM or more?
Given back: no

Asked: TGI >= 10 µM for Oc1ccccc1/C=N\NC(=S)Nc1ccc(F)cc1 ?
Given back: yes

Asked: Could you tell me if the measured TGI of COC(=O)c1sc2c(c1C(=O)OC)C(=Nc1ccc(OC)cc1)SC2=Nc1ccc(OC)cc1 reaches 10 µM or more?
Given back: no

Asked: Threshold query (TGI >= 10 µM) on COc1cccc(C2c3cc4c(cc3OC(NNS(=O)(=O)c3ccc(C)cc3)C2C)OCO4)c1O (stereo unspecified)
Given back: yes

Asked: Form field: TGI at least 10 µM? Entry: CC(=O)O[C@H]1CSC[C@@H](OC(C)=O)C1[N+](=O)[O-] (stereo partly specified)
Given back: yes

Asked: Determine whether this compound has TGI no lower than 10 µM: c1cc(CSP234N5CCN2CCN3CCN4CC5)cc(CSP234N5CCN2CCN3CCN4CC5)c1
Given back: yes

Asked: Does C(/C=C(\Nc1ccccc1)c1ccc2ccccc2c1)=Nc1ccccc1 have a reported TGI of at least 10 µM?
Given back: no

Asked: Say whether NS(=O)(=O)c1cccc(Nc2cc(-c3ccc(F)cc3)[nH]n2)c1 shows TGI of 10 µM or more.
Given back: yes

Asked: Does COc1cccc(NC(=O)/C(CS(=O)(=O)CCC(C(C)=O)C(C)=O)=N\NC(C)(C)C)c1 have a reported TGI of at least 10 µM?
Given back: yes

Asked: Record COC(=O)[C@]12CC[C@@H](C)[C@H](C)[C@@H]1C1=CC[C@@H]3[C@@]4(C)C[C@@H](OC(C)=O)[C@H](OC(C)=O)[C@@](C)(COC(C)=O)[C@@H]4[C@H](O)C[C@@]3(C)[C@]1(C)CC2 ; criterion: TGI no lower than 10 µM. Met?
Given back: yes

Asked: Is TGI at least 10 µM? Consider O=C1N[C@@H]([C@H]2CC[C@H](Cl)CN2)C(=O)N[C@H]1[C@H]1CC[C@H](Cl)CN1
Given back: yes

All values here come from PubChem BioAssay (NCI).
